Target: Phosphodiesterase 1 (Homo sapiens, UniProt P54750+Q01064+Q14123)
Assay: Inhibition of Calmodulin Sensitive Phosphodiesterase 1 from pig coronary artery
Format: tissue-based, Sus scrofa
Conditions: target entry is the homologue from another species
REPORTED_METRIC: I50 (µM)

Example entries begin here.
1. Cc1nc2c([nH]1)c(=O)n(C)c(=O)n2CC(C)C 1.9
2. CC(C)Cn1c(=O)n(C)c(=O)c2cc3[nH]cnc3cc21 40

a = COCc1nc2c([nH]1)c(=O)n(C)c(=O)n2CC(C)C
b = COCc1nc2c(ccc3c2c(=O)n(C)c(=O)n3CC(C)C)[nH]1
Q) Form: Entry with minimum I50 (choose one): a / b State your choice using its label.
A) a
(a: 5.2 µM, b: 54 µM)

1 = CC(C)Cn1c(=O)n(C)c(=O)c2cc3[nH]c(C(C)(C)C)nc3cc21
2 = CC(C)Cn1c(=O)n(C)c(=O)c2c3c(ccc21)ncn3Cc1ccccc1
3 = CC(C)Cn1c(=O)n(C)c(=O)c2c3nc[nH]c3ccc21
4 = CC(C)Cn1c(=O)n(C)c(=O)c2c1ncn2Cc1ccccc1
Q) Could you please order the items by I50, going from the lowest number to the highest? I would appreciate it if you listed the labels in the requested order.
A) 4, 3, 2, 1

a = COCc1nc2cc3c(=O)n(C)c(=O)n(CC(C)C)c3cc2[nH]1
b = CC(C)Cn1c(=O)n(C)c(=O)c2nc[nH]c21
Q) Could you kindly indicate whether a or b has the higher I50 value? State your choice using its label.
A) a
(a: 36 µM, b: 6.3 µM)

====

pIC50: −log10 of the molar value.
A short record of pIC50 observed with cGMP-dependent 3',5'-cyclic phosphodiesterase (Homo sapiens) follows.
Sequence (O00408 whole entry): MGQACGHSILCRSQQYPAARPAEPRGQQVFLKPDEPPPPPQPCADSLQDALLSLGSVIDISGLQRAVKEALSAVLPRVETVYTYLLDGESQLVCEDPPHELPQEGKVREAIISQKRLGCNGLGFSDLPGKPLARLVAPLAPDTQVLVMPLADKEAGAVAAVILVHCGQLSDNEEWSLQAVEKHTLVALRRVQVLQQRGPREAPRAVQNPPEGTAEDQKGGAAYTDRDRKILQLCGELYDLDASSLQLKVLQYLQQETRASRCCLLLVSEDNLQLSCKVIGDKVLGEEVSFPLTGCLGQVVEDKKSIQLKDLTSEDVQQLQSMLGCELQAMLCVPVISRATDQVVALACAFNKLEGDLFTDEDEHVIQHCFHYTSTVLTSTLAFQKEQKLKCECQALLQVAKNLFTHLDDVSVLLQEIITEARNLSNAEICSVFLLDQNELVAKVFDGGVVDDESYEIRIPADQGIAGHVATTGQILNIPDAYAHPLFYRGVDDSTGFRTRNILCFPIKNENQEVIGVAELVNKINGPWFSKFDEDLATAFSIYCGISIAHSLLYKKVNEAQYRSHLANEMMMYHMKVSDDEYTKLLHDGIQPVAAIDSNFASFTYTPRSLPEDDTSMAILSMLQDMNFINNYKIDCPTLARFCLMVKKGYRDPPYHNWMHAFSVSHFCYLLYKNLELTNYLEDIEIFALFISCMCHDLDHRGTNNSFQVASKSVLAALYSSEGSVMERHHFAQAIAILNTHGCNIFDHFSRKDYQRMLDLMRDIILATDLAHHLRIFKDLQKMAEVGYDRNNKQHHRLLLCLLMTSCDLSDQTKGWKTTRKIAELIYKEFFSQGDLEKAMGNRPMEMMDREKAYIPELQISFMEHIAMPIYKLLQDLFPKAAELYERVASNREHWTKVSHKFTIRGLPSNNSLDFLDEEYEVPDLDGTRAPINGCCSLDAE

1. Cc1nc2cc3c(cc2[nH]1)c(=O)n(C)c(=O)n3CC(C)C < 4.30
2. COCc1nc2cc3c(=O)n(C)c(=O)n(CC(C)C)c3cc2[nH]1 < 4.30

Lab note: next compound to report on.
Q) Can you look up pIC50 on cGMP-dependent 3',5'-cyclic phosphodiesterase (Homo sapiens) for CC(C)Cn1c(=O)n(C)c(=O)c2cc3[nH]c(C(C)(C)C)nc3cc21 ?
A) < 4.30

====

Molecular target: Phosphodiesterase 1 (Homo sapiens, UniProt P54750+Q01064+Q14123)
Assay: Inhibition of Calmodulin Sensitive Phosphodiesterase 1 from pig coronary artery
Assay type: tissue-based, Sus scrofa
Conditions: target entry is the homologue from another species
REPORTED_METRIC: I50

Example entries begin here.
1. CC(C)CCn1c(=O)c2cc3nc[nH]c3cc2n(CC(C)C)c1=O > 25 µM
2. CC(C)CCn1c(=O)c2c3nc[nH]c3ccc2n(CC(C)C)c1=O > 25 µM

Lab note: next molecule to report on.
Q) Param item = CC(C)Cn1c(=O)n(C)c(=O)c2c3nc(C(C)(C)C)[nH]c3ccc21 ; retrieve measured I50.
A) > 50 µM

Values compiled from ChEMBL document CHEMBL1123546.
